Conditions: human gut metagenome, 24 h, 2 µM; also: call rule not given here
test.readout: Bacterial Biotransformation

The following molecules have reported results that may help.
| molecule | Bacterial Biotransformation |
| --- | --- |
| O=C(NCc1ccccc1)OCCO [BURAMATE] | Compound NOT metabolized |
| Cc1nc(-c2ccc(OCC(C)C)c(C#N)c2)sc1C(=O)O | Compound NOT metabolized |
| Cc1cn([C@H]2C[C@H](N=[N+]=[N-])[C@@H](CO)O2)c(=O)[nH]c1=O | Compound metabolized |
| CCN(CC)CCOCCOC(=O)C1(c2ccccc2)CCCC1.O=C(O)CC(O)(CC(=O)O)C(=O)O [CARBETAPENTANE CITRATE] | Compound NOT metabolized |

Now examine the next entry.
Qu. # return recorded Bacterial Biotransformation for input Nc1ccc(/N=N/c2ccccc2)c(N)n1
Ans. Compound metabolized

====

Experiment: The drug is tested on WLS-010 corresponding to human gut metagenome with ENA study accession number: PRJEB37062 and ENA sample accession number: ERS12561743 for biotransformation under anaerobic condition. The drug concentrations were measured over 9 timepoints collected between 0 and 24 hours of incubation by liquid-chromatography-coupled mass spectrometry (LC–MS)
Conditions: 2 µM
test.readout: Bacterial Biotransformation

# count of solved cases: 8
| molecule | test.readout | reported.result |
| --- | --- | --- |
| CC(=O)OCC(=O)[C@@]1(O)[C@@H](C)C[C@H]2[C@@H]3CCC4=CC(=O)C=C[C@]4(C)[C@@]3(F)[C@@H](O)C[C@@]21C [BETAMETHASONE ACETATE] | Bacterial Biotransformation | Compound metabolized |
| Fc1ccc([C@@H]2CCNC[C@H]2COc2ccc3c(c2)OCO3)cc1 [PAROXETINE] | Bacterial Biotransformation | Compound metabolized |
| C[C@@H]1C[C@H]2[C@@H]3CCC4=CC(=O)C=C[C@]4(C)[C@@]3(F)[C@@H](O)C[C@]2(C)[C@@]1(O)C(=O)CO [DEXAMETHASONE] | Bacterial Biotransformation | Compound metabolized |
| CCCC1O[C@@H]2C[C@H]3[C@@H]4CCC5=CC(=O)C=C[C@]5(C)[C@H]4[C@@H](O)C[C@]3(C)[C@]2(C(=O)CO)O1 (stereo partly specified) [BUDESONIDE] | Bacterial Biotransformation | Compound metabolized |
| CCC(COC(=O)c1cc(OC)c(OC)c(OC)c1)(c1ccccc1)N(C)C.O=C(O)/C=C\C(=O)O (stereo unspecified) | Bacterial Biotransformation | Compound NOT metabolized |
| CCOC(=O)[C@H](CCc1ccccc1)N[C@@H](C)C(=O)N1[C@H](C(=O)O)C[C@@H]2CCC[C@@H]21 | Bacterial Biotransformation | Compound metabolized |
| C[C@@H]1CC[C@H]2[C@@H](C)C(=O)O[C@@H]3O[C@@]4(C)CC[C@@H]1[C@]32OO4 [ARTEMISININ] | Bacterial Biotransformation | Compound metabolized |
| CCN1CCCC1CNC(=O)c1cc(S(N)(=O)=O)ccc1OC (stereo unspecified) [SULPIRIDE] | Bacterial Biotransformation | Compound metabolized |

Provide Bacterial Biotransformation for all items below, preserving their order.
1. COc1ccc2c(c1OC)C(=O)O[C@@H]2[C@H]1c2c(cc3c(c2OC)OCO3)CCN1C [NOSCAPINE]
2. CC(CN1c2ccccc2Sc2ccccc21)N(C)C (stereo unspecified) [PROMETHAZINE]
3. CC(=O)CC(c1ccccc1)c1c(O)c2ccccc2oc1=O (stereo unspecified) [WARFARIN]
4. COc1ccccc1N1CCN(CC(O)COc2cccc3ccccc23)CC1 (stereo unspecified) [NAFTOPIDIL]
5. C[C@@H](CO)NC(=O)[C@@H]1C=C2c3cccc4[nH]cc(c34)C[C@H]2N(C)C1.O=C(O)/C=C\C(=O)O [ERGONOVINE MALEATE]

Ans.
1: Compound NOT metabolized; 2: Compound NOT metabolized; 3: Compound metabolized; 4: Compound NOT metabolized; 5: Compound metabolized

Cited source for all entries: ChEMBL document CHEMBL5724914
